Recorded values, source ChEMBL document CHEMBL3885861.

Organism: Rattus norvegicus
experiment-notes: Open TG-GATES - Regimen: Daily Repeat
Format: toxicity, organism-based, Sprague-Dawley
Set-up: regimen Daily Repeat, gender Male, age 6 weeks
conditions-used: in vivo, po, 0 mg/kg, […], tissue Blood, route gavage, dose level Control, time 14 day
Each record here notes measured Neu.

{"columns": ["compound", "reading-unit", "Neu"],
 "data": [
  ["CC(=O)Oc1ccccc1C(=O)O [ASPIRIN]", "%", 13.4],
  ["O=C(O)c1cc(/N=N/c2ccc(S(=O)(=O)Nc3ccccn3)cc2)ccc1O [SULFASALAZINE]", "%", 16.8],
  ["CCCC(CCC)C(=O)O [VALPROIC ACID]", "%", 17.6],
  ["COc1ccc2c(c1)c(CC(=O)O)c(C)n2C(=O)c1ccc(Cl)cc1 [INDOMETHACIN]", "%", 10.4],
  ["CO[C@H]1/C=C/O[C@@]2(C)Oc3c(C)c(O)c4c(O)c(c(/C=N/N5CCN(C)CC5)c(O)c4c3C2=O)NC(=O)/C(C)=C\\C=C\\[C@H](C)[C@H](O)[C@@H](C)[C@@H](O)[C@@H](C)[C@H](OC(C)=O)[C@@H]1C [RIFAMPIN]", "%", 11.8],
  ["NC(=O)N1c2ccccc2C=Cc2ccccc21 [CARBAMAZEPINE]", "%", 13.2],
  ["Clc1ccccc1CN1CCc2sccc2C1 [TICLOPIDINE]", "%", 16],
  ["NC(=O)N/N=C/c1ccc([N+](=O)[O-])o1 [NITROFURAZONE]", "%", 18.2],
  ["C[C@H](CS)C(=O)N1CCC[C@H]1C(=O)O [CAPTOPRIL]", "%", 12.4],
  ["CCc1cc(C(N)=S)ccn1 [ETHIONAMIDE]", "%", 14.2],
  ["O=C(O)c1cn(C2CC2)c2cc(N3CCNCC3)c(F)cc2c1=O [CIPROFLOXACIN]", "%", 11],
  ["Cn1c(=O)c2[nH]cnc2n(C)c1=O.O [THEOPHYLLINE]", "%", 15.2],
  ["CN(C)CCC=C1c2ccccc2CCc2ccccc21 [AMITRIPTYLINE]", "%", 19],
  ["CSc1ccc2c(c1)N(CCC1CCCCN1C)c1ccccc1S2 (stereo not given) [THIORIDAZINE]", "%", 14.6],
  ["COc1ccc(Cc2nccc3cc(OC)c(OC)cc23)cc1OC [PAPAVERINE]", "%", 13.2]
]}

====

Form field: Na (one value per entry).
Organism: Rattus norvegicus
experiment-notes: Open TG-GATES - Regimen: Daily Repeat
Format: toxicity, organism-based, Sprague-Dawley
Design: regimen Daily Repeat, gender Male, age 6 weeks
conditions-used: in vivo, po, 0 mg/kg, 72 h, tissue Plasma, route gavage, dose level Control, time 3 day
endpoint: Na (meq/L)

{"columns": ["compound", "endpoint", "endpoint-result"],
 "data": [
  ["CC(=O)Oc1ccccc1C(=O)O", "Na", 140.4],
  ["CO[C@H]1/C=C/O[C@@]2(C)Oc3c(C)c(O)c4c(O)c(c(/C=N/N5CCN(C)CC5)c(O)c4c3C2=O)NC(=O)/C(C)=C\\C=C\\[C@H](C)[C@H](O)[C@@H](C)[C@@H](O)[C@@H](C)[C@H](OC(C)=O)[C@@H]1C", "Na", 139.8],
  ["C[C@H](CS)C(=O)N1CCC[C@H]1C(=O)O", "Na", 139],
  ["Cn1c(=O)c2[nH]cnc2n(C)c1=O.O", "Na", 141],
  ["CCc1cc(C(N)=S)ccn1 [ETHIONAMIDE]", "Na", 141]
]}

====

Organism: Rattus norvegicus
experiment-notes: Open TG-GATES - Regimen: Single
Type: toxicity, organism-based, Sprague-Dawley
Parameters: regimen Single, gender Male, age 6 weeks
conditions-used: in vivo, po, 0 mg/kg, 24 h, tissue Blood, route gavage, dose level Control
# Bas per record follows

{"columns": ["molecule", "reading-unit", "Bas"],
 "data": [
  ["C[C@H](CS)C(=O)N1CCC[C@H]1C(=O)O", "%", 0],
  ["CCc1cc(C(N)=S)ccn1 [ETHIONAMIDE]", "%", 0],
  ["CSc1ccc2c(c1)N(CCC1CCCCN1C)c1ccccc1S2 (stereo not drawn)", "%", 0],
  ["Clc1ccccc1CN1CCc2sccc2C1", "%", 0.8],
  ["O=C(O)c1cn(C2CC2)c2cc(N3CCNCC3)c(F)cc2c1=O", "%", 0],
  ["CN(C)CCC=C1c2ccccc2CCc2ccccc21", "%", 0.4],
  ["COc1ccc(Cc2nccc3cc(OC)c(OC)cc23)cc1OC", "%", 0],
  ["COc1cc2c(c3oc(=O)c4c(c13)CCC4=O)[C@@H]1C=CO[C@@H]1O2", "%", 0],
  ["NC(=O)N/N=C/c1ccc([N+](=O)[O-])o1", "%", 0],
  ["Cn1c(=O)c2[nH]cnc2n(C)c1=O.O", "%", 0],
  ["CC(=O)Oc1ccccc1C(=O)O", "%", 0.8],
  ["NC(=O)N1c2ccccc2C=Cc2ccccc21 [CARBAMAZEPINE]", "%", 0],
  ["O=C(O)c1cc(/N=N/c2ccc(S(=O)(=O)Nc3ccccn3)cc2)ccc1O", "%", 0]
]}

====

Species: Rattus norvegicus
experiment-notes: Open TG-GATES - Regimen: Single
Type: toxicity, organism-based, Sprague-Dawley
Parameters: regimen Single, gender Male, age 6 weeks
conditions-used: in vivo, po, 100 mg/kg, 24 h, tissue Plasma, route gavage, dose level Low
endpoint: AST (IU/L)

{"columns": ["molecule", "reading-unit", "endpoint-result"],
 "data": [
  ["O=C(O)c1cc(/N=N/c2ccc(S(=O)(=O)Nc3ccccn3)cc2)ccc1O [SULFASALAZINE]", "IU/L", 64.6],
  ["Clc1ccccc1CN1CCc2sccc2C1 [TICLOPIDINE]", "IU/L", 70.2],
  ["O=C(O)c1cn(C2CC2)c2cc(N3CCNCC3)c(F)cc2c1=O [CIPROFLOXACIN]", "IU/L", 74.6],
  ["C[C@H](CS)C(=O)N1CCC[C@H]1C(=O)O [CAPTOPRIL]", "IU/L", 68.8],
  ["CCc1cc(C(N)=S)ccn1 [ETHIONAMIDE]", "IU/L", 80.4]
]}

====

Species: Rattus norvegicus
experiment-notes: Open TG-GATES - Regimen: Daily Repeat
Format: toxicity, organism-based, Sprague-Dawley
Design: regimen Daily Repeat, gender Male, age 6 weeks
conditions-used: in vivo, po, 0 mg/kg, […], tissue Blood, route gavage, dose level Control, time 28 day

{"columns": ["molecule", "Ret"],
 "data": [
  ["CCc1cc(C(N)=S)ccn1 [ETHIONAMIDE]", "4.8%"],
  ["Cn1c(=O)c2[nH]cnc2n(C)c1=O.O [THEOPHYLLINE]", "2.7%"],
  ["Clc1ccccc1CN1CCc2sccc2C1 [TICLOPIDINE]", "2.7%"],
  ["CSc1ccc2c(c1)N(CCC1CCCCN1C)c1ccccc1S2 (stereo not given) [THIORIDAZINE]", "3%"],
  ["NC(=O)N/N=C/c1ccc([N+](=O)[O-])o1 [NITROFURAZONE]", "2.6%"],
  ["COc1ccc2c(c1)c(CC(=O)O)c(C)n2C(=O)c1ccc(Cl)cc1 [INDOMETHACIN]", "3.2%"],
  ["C[C@H](CS)C(=O)N1CCC[C@H]1C(=O)O [CAPTOPRIL]", "2.5%"],
  ["O=C(O)c1cc(/N=N/c2ccc(S(=O)(=O)Nc3ccccn3)cc2)ccc1O [SULFASALAZINE]", "2.3%"],
  ["CO[C@H]1/C=C/O[C@@]2(C)Oc3c(C)c(O)c4c(O)c(c(/C=N/N5CCN(C)CC5)c(O)c4c3C2=O)NC(=O)/C(C)=C\\C=C\\[C@H](C)[C@H](O)[C@@H](C)[C@@H](O)[C@@H](C)[C@H](OC(C)=O)[C@@H]1C [RIFAMPIN]", "2.2%"],
  ["COc1ccc(Cc2nccc3cc(OC)c(OC)cc23)cc1OC [PAPAVERINE]", "3%"],
  ["O=C(O)c1cn(C2CC2)c2cc(N3CCNCC3)c(F)cc2c1=O [CIPROFLOXACIN]", "2.8%"],
  ["CN(C)CCC=C1c2ccccc2CCc2ccccc21 [AMITRIPTYLINE]", "2.5%"],
  ["CCCC(CCC)C(=O)O [VALPROIC ACID]", "2.6%"],
  ["NC(=O)N1c2ccccc2C=Cc2ccccc21 [CARBAMAZEPINE]", "2.4%"],
  ["CC(=O)Oc1ccccc1C(=O)O [ASPIRIN]", "1.8%"]
]}
